- target.of.assay: PD-1/PD-L1 (Homo sapiens, UniProt Q9NZQ7)
- Sequence (Q9NZQ7 19-238 limits assumed): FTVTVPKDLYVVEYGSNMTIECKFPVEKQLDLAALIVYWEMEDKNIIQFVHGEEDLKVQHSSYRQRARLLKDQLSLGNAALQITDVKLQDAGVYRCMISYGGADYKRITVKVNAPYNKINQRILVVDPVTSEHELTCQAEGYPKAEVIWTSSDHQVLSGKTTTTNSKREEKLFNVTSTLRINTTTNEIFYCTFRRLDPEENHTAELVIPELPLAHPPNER
- experiment.notes: TR-FRET PD-1/PD-L1 binding inhibition at the molecular level (free proteins)
- experimental.context: Tag1-PD-L1 and Tag2-PD-1 proteins, twelve concentrations from 200 nM, 2 hours at room temperature, read-out: FRET assay (IC50)
observable: IC50

Some compounds with known IC50 results, for comparison:
compound | IC50
Cc1c(NC(=O)c2ccc(CN3CC[C@@H](O)C3)cn2)cccc1-c1cccc(NC(=O)c2cc3n(n2)CCCC3NC(C)(C)C(=O)O)c1C (stereo partly drawn) | < 0.01 µM
Cc1c(NC(=O)c2cc3n(n2)CCCC3N2CC[C@@H](O)C2)cccc1-c1cccc(-c2cc3n(n2)CCCC3N2CC[C@@H](O)C2)c1C (stereo partly drawn) | 0.01 to 0.1 µM
Cc1c(NC(=O)c2ccc(CN3CC[C@@H](O)C3)cn2)cccc1-c1cccc(NC(=O)c2cc3n(n2)CCC[C@@H]3N2CC(C(=O)O)C2)c1C | < 0.01 µM
COc1cc(-c2cccc(-c3cccc(NC(=O)c4cc5n(n4)CCCC5N4CC[C@@H](O)C4)c3Cl)c2Cl)cc(F)c1CNCCO (stereo partly drawn) | < 0.01 µM

Provide IC50 for all items below, preserving their order.
1. O=C(Nc1cccc(-c2cccc(NC(=O)c3cc4n(n3)CCCC4N3CCC(O)CC3)c2Cl)c1Cl)c1ccc(CN2CC[C@@H](O)C2)cn1 (stereo partly drawn)
2. Cc1c(NC(=O)c2cc3n(n2)CCCC3NCC(=O)O)cccc1-c1cccc(-c2nc3cc(CN4CC[C@@H](C(=O)O)C4)cc(C#N)c3o2)c1C (stereo partly drawn)

< 0.01 µM
< 0.01 µM

====

- target.of.assay: PD-1/PD-L1 (Homo sapiens)
- experiment.notes: TR-FRET PD-1/PD-L1 binding inhibition at the molecular level (free proteins)
- experimental.context: Tag1-PD-L1 and Tag2-PD-1 proteins, twelve concentrations from 200 nM, 2 hours at room temperature, read-out: FRET assay (IC50)
pIC50: −log10 of the molar value.
I'd appreciate it if you could supply pIC50 values for the items below.

Examples with answers:
compound | pIC50
Cn1c(C(=O)Nc2cccc(-c3cccc(NC(=O)c4cc5n(n4)CCCC5NCCO)c3Cl)c2Cl)nc2c1CCN(CCC13CCC(C(=O)O)(CC1)C3)C2 (stereo not drawn) | > 8.00
Cc1c(NC(=O)c2cc3n(n2)CCCC3NCCO)cccc1-c1cccc(Nc2nccc3cc(CN4CC[C@@H](O)C4)cnc23)c1C (stereo partly drawn) | > 8.00
CC(=O)NCCNC1CCCn2nc(C(=O)Nc3cccc(-c4cccc(Nc5nc(C(F)F)nc6cc(CN7CC[C@@H](O)C7)cnc56)c4Cl)c3Cl)cc21 (stereo partly drawn) | 7.00 to 8.00
O=C(Nc1cccc(-c2cccc(NC(=O)c3cc4n(n3)CCCC4N3CCC(C(=O)O)CC3)c2Cl)c1Cl)c1ccc(CN2CC[C@@H](O)C2)cn1 (stereo partly drawn) | 7.00 to 8.00

Parameter requested: pIC50. Apply to each item below.
1. CN[C@@H]1CCCn2nc(C(=O)Nc3cccc(-c4cccc(Nc5nc(C(F)F)nc6cc(CN7CC[C@@H](O)C7)cnc56)c4Cl)c3Cl)cc21
2. O=C(Nc1cccc(-c2cccc(Nc3nccc4nccnc34)c2Cl)c1Cl)c1cc2n(n1)CCC[C@H]2N1CC(C(=O)O)C1
3. O=C(Nc1cccc(-c2cccc(NC(=O)c3cc4n(n3)CCCC4N3CC[C@@H](C(=O)O)C3)c2Cl)c1Cl)c1ccc(CN2CC[C@@H](O)C2)cn1 (stereo partly drawn)

["7.00 to 8.00", "> 8.00", "> 8.00"]

Quick batch: pIC50 for everything below.
1. CC(=O)N1CC2(C1)CN(C1CCCn3nc(C(=O)Nc4cccc(-c5cccc(Nc6nccc7cc(CN8CC[C@@H](O)C8)cnc67)c5Cl)c4Cl)cc31)C2 (stereo partly drawn)
2. O=C(Nc1cccc(-c2cccc(NC(=O)c3cc4n(n3)CCC[C@H]4N3CC[C@@H](C(=O)O)C3)c2Cl)c1Cl)c1ccc(CNCCO)cn1

7.00 to 8.00
> 8.00

// each listed compound needs a value for pIC50
1. COc1cc(-c2cccc(-c3cccc(NC(=O)c4cc5n(n4)CCCC5NCCO)c3Cl)c2Cl)cc(F)c1CNC[C@@H]1CCC(=O)N1 (stereo partly drawn)
2. Cc1c(NC(=O)c2cc3n(n2)CCC[C@H]3N2CCC(O)CC2)cccc1-c1cccc(Nc2nc(C(F)F)nc3cccnc23)c1C
3. O=C(Nc1cccc(-c2cccc(Nc3nc(C(F)(F)F)nc4cccnc34)c2Cl)c1Cl)c1cc2n(n1)CCC[C@H]2N1CC[C@@H](O)C1

1. 7.00 to 8.00
2. 7.00 to 8.00
3. 7.00 to 8.00

Attribution: patent EP4755888A1
